Values were extracted from ChEMBL document CHEMBL3286287.

# pKi per entry
molecular target: D(2) dopamine receptor (Homo sapiens); test: Displacement of [3H]N-methylspiperone from human dopamine D2 receptor by PDSP assay
Sequence (P14416 whole entry): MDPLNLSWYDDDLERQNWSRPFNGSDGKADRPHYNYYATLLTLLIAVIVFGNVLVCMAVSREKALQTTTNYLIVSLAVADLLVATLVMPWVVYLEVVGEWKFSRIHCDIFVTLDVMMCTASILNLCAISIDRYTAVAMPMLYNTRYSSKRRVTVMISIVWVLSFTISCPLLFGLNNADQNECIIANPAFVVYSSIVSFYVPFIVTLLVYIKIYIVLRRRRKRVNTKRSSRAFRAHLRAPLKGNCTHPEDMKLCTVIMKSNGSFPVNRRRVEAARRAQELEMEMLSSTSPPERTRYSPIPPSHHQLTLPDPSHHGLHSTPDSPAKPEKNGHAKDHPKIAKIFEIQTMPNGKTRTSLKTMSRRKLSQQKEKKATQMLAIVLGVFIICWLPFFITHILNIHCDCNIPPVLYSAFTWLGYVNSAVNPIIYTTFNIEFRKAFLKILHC
// pKi is dimensionless: -log10 of concentration (M)

Examples from the recorded data:
Molecule: Clc1ccc(N2CCCN(CCCc3cc4ccccc4o3)CC2)cc1
Measured property: pKi
Result value: 5.60
--
Molecule: FC(F)(F)c1ccc(OCCCN2CCN(c3ccccn3)CC2)cc1
Measured property: pKi
Result value: 5.96
--
Molecule: Clc1ccc(N2CCN(CCCCCc3nc4ccccc4o3)CC2)cc1
Measured property: pKi
Result value: 5.51

[ask] Hello, please tell me recorded pKi for this one: O=C1c2ccc(F)cc2CC1CCN1CCN(c2ccc(Cl)cc2)CC1 (stereo unspecified)
[reply] 5.81

[ask] For the molecule Cc1ccc(N2CCN(CCCSc3ccc(F)cc3)CC2)nc1 , give its reported pKi.
[reply] 5.96

[ask] Fill in reported pKi for this entry: [O-][S+](CCCN1CCN(c2ccc(Cl)cc2)CC1)c1ccc(F)cc1 (stereo unspecified)
[reply] 6.20

[ask] Tell me pKi reported for Clc1ccc(N2CCN(CCCc3nc4ccccc4o3)CC2)cc1
[reply] 5.40

[ask] Tell us which pKi value is on record for Clc1ccc(N2CCN(CCCc3cc4ccccc4o3)CC2)cc1
[reply] 5.70

[ask] Return the recorded pKi value; entry: Cc1ccc(N2CCN(CCCOc3ccc(F)cc3)CC2)nc1
[reply] 5.98

[ask] Using known records, supply pKi for Fc1ccc2c(c1)CC(CCN1CCN(c3ccc(Cl)cc3)CC1)C2 (stereo unspecified)
[reply] 5.85
